Test system: COLO 205
Assay: NCI tumour cell line growth inhibition, 48 h
Activity calls are given as the source filed them. No stated cut-off is given here; in the data, active = GI50 up to about 1.1 µM and inactive = higher.
Collected GI50 values appear next to each entry.
VALUE KIND: GI50

MOLECULE: CN(C)CCCNc1ccnc2c([N+](=O)[O-])cccc12
READOUT VALUE: 2.37 µM (inactive)
--
MOLECULE: CC(C)=CC(=O)N(C)C1C2CN3CCC(O2)C13 (stereo not drawn)
READOUT VALUE: > 100 µM (inactive)
--
MOLECULE: COc1cc(C2c3cc4c(cc3[C@@H](OCCN)[C@H]3COC(=O)C23)OCO4)cc(OC)c1O (stereo partly drawn)
READOUT VALUE: 1.7 µM (inactive)
--
MOLECULE: O=[N+]([O-])c1ccc(OCc2nnc(CCCCCCCCc3nnc(COc4ccc([N+](=O)[O-])cc4)o3)o2)cc1
READOUT VALUE: > 100 µM (inactive)
--
MOLECULE: Cn1c(CC(O)c2nc3ccccc3n2C)nc2ccccc21 (stereo not drawn)
READOUT VALUE: > 28.4 µM (inactive)
--
MOLECULE: COc1cc(=O)oc(/C=C/C=C/C=C/C(C)=C\C2(C)OC(C)C(C)(O)C2O)c1C (stereo not drawn)
READOUT VALUE: > 100 µM (inactive)
--
MOLECULE: S=C(N/N=C/c1ccco1)NC12CC3CC(CC(C3)C1)C2
READOUT VALUE: 15.3 µM (inactive)
--
MOLECULE: O=C(N/N=C\c1ccc(Cl)cc1)Nc1cccc2ccccc12
READOUT VALUE: 4.75 µM (inactive)

====

System: IGROV-1
Assay: NCI tumour cell line growth inhibition, 48 h
Calls of active or inactive are those of the source. Cut-off read from the data, not from the text of the source: active = GI50 up to about 1.1 µM and inactive = higher.
Collected GI50 values appear next to each entry.
VALUE KIND: GI50

SMILES CODE: CC1(C)CCC[C@]2(C)[C@@H]1CC[C@@]13O[C@@H]1C1=C(CO)C(=O)O[C@]14O[C@@H]4[C@@H]23
STUDY TARGET: IGROV-1
READOUT VALUE: 13.3 µM (inactive)
--
SMILES CODE: C=CCOC(=O)Cn1ccc(=O)[nH]c1=O
STUDY TARGET: IGROV-1
READOUT VALUE: > 100 µM (inactive)
--
SMILES CODE: C[n+]1c2ccccc2c(/C=N\NS(=O)(=O)c2ccc(O)c(C(=O)O)c2)c2ccccc21
STUDY TARGET: IGROV-1
READOUT VALUE: 58.5 µM (inactive)

====

Test system: MCF7
Assay: NCI tumour cell line growth inhibition, 48 h
The source made the active and inactive calls. Cut-off read from the data, not from the text of the source: active = GI50 up to about 1.1 µM and inactive = higher.
Collected GI50 values appear next to each entry.
VALUE KIND: GI50

MOLECULE: C[n+]1c2ccccc2c2/c(=C\C#N)c3ccccc3n21
READOUT VALUE: 2.16 µM (inactive)

MOLECULE: Cc1[nH]n(-c2nc(O)c(-c3ccccc3)c(=O)[nH]2)c(=O)c1CCO
READOUT VALUE: > 100 µM (inactive)

MOLECULE: CC(C)(C)c1cc2c(OC/C=C/c3ccccc3)c(c1)Cc1cc(C(C#N)(OC/C=C/c3ccccc3)OC/C=C/c3ccccc3)cc(c1OC/C=C\c1ccccc1)Cc1cc(C(C)(C)C)cc(c1OC/C=C/c1ccccc1)Cc1cc(C(C#N)(OC/C=C\c3ccccc3)OC/C=C/c3ccccc3)cc(c1OC/C=C\c1ccccc1)C2 (configuration not stated)
READOUT VALUE: > 100 µM (inactive)

MOLECULE: O=C1C(Cl)C2(CC(/C=C/c3ccccc3)=NN2c2cccc(S(=O)(=O)O)c2)N1c1nc2ccccc2s1 (configuration not stated)
READOUT VALUE: 16.7 µM (inactive)

MOLECULE: COC(=O)c1ccc(Nc2nc3[nH]cnc3c(=O)[nH]2)cc1
READOUT VALUE: > 100 µM (inactive)

MOLECULE: CC(C)CC(NC=O)C(=O)NC(Cc1ccccc1)NC(=O)CNC(=O)C(C)NC(=O)C(N)Cc1ccc(O)cc1 (configuration not stated)
READOUT VALUE: > 100 µM (inactive)

MOLECULE: C/C(=N/NC(=S)N1CCCCC1)c1ccccc1O
READOUT VALUE: 14.3 µM (inactive)

MOLECULE: COc1ccc(C2CC(=O)Oc3ccccc3O2)cc1 (configuration not stated)
READOUT VALUE: > 100 µM (inactive)

MOLECULE: OC(CC(O)(C(F)(F)Cl)C(F)(F)Cl)c1ccccc1 (configuration not stated)
READOUT VALUE: > 10 µM (inactive)

MOLECULE: Cc1cc2c(cc1C)[n+]([O-])c(C#N)c(Cl)[n+]2[O-]
READOUT VALUE: 12.9 µM (inactive)

MOLECULE: COc1ccc2nc3cc([N+](=O)[O-])ccc3c(NNc3ccc(Cl)cc3)c2c1
READOUT VALUE: 11.6 µM (inactive)

MOLECULE: Cc1c2cccc-2ccc2c1[nH]c1ccccc12
READOUT VALUE: 3.06 µM (inactive)
